Tested on: HL-60
protocol.description: NCI tumour cell line growth inhibition, 48 h
Activity calls are given as the source filed them. No stated cut-off is given here; in the data, active = GI50 up to about 1.1 µM and inactive = higher.
Outcome codes: active, inactive

compound	label.class
COc1cc(C2C(Cl)C(=O)N2NC(=O)Cc2ccccc2)ccc1O (configuration not stated)	inactive
Cc1cc(C[C@H]2O[C@@H]3OC(C)(C)O[C@@H]3[C@H]3OC(C)(C)O[C@H]32)c2ccccc2n1	inactive
COc1cc2c(cc1OC)C1=CCC(c3ccccc3)[N+]1(C)CC2 (configuration not stated)	inactive
COc1ccc(/C(Cl)=C(\C=O)c2ccc(OC)c(OC)c2)cc1OC	inactive
C=CCOC1OC(CS(=O)(=O)O)C(OC(C)=O)C(OC(C)=O)C1OC(C)=O (configuration not stated)	inactive
N#CC1(C=O)c2ccccc2C=CN1C(=O)c1ccccc1 (configuration not stated)	inactive
Cc1ccc(S(=O)(=O)N2CCc3cc(O)c([N+](=O)[O-])cc32)cc1	inactive
COc1ccc2c(c1)OCCc1cn[nH]c1-2	inactive
CC(=O)Nc1c(Nc2ccccc2)[nH]c(C)nc1=S	inactive
COc1cc(NS(C)(=O)=O)ccc1Nc1c2ccccc2nc2c1[nH]c1ccc(NC3OC(CO)C(O)C(O)C3O)cc12 (configuration not stated)	active
c1csc(-c2nccc3c2[nH]c2ccccc23)c1	inactive
COC(c1ccccc1)C(c1ccccc1)N1CCOCC1 (configuration not stated)	inactive
CCCC(=O)OCC1OC(n2cc(F)c(=O)[nH]c2=O)CC1O (configuration not stated)	active
COc1ccc2[nH]c3c4c(c5cc(C(C)(C)C)ccc5c3c2c1)C(=O)N(c1ccccc1)C4=O	inactive
Cc1ccccc1NC(=O)/C=N/O	active
COc1cc(OC)c2c(c1)OC(c1cccnc1)C(c1ccccc1)C2=O (configuration not stated)	inactive
CC1=NN(c2cccc(Cl)c2)C(=N/c2nc3ccccc3s2)/C1=C\C=C\c1ccccc1	inactive
O=C(Nc1ccccc1)n1cc(-c2ccccn2)c(N2CCOCC2)n1	inactive
COc1cc(C(=O)C/C(CCC(=O)Nc2ccc(Cl)cc2Cl)=N/NC(=O)C(N)=O)ccc1O	inactive
O=C1Sc2ccccc2NC1=C(C(=O)c1ccccc1)C(=O)c1ccccc1	inactive
CC(C)(C)OC(=O)N1CCCC1=O	inactive
O=c1[nH]c(=O)n(C2CC(O)C(CO)O2)cc1/N=N/NCc1ccccc1 (configuration not stated)	inactive
Cc1cc(S(=O)(=O)/N=C(\NN)NCC(=O)NN)c(S)cc1Cl	inactive
Cc1ccc(Sc2ccc(C)cc2[N+](=O)[O-])c([N+](=O)[O-])c1	inactive
Nc1nc(N)nc(CCCCc2nc(N)nc(N)n2)n1	inactive
C=CCNC(=O)CN(CC(=O)O)C1CCCCC1N(CC(=O)O)CC(=O)O (configuration not stated)	inactive
O=c1[nH]c(=O)n(C2OC(CO)C(O)C2O)c2c1CCCC2 (configuration not stated)	inactive
CCOc1ccc2ccc3cccnc3c2n1	inactive
C/C=C/[C@H]1O[C@@](O)([C@@H](C)[C@H](O)[C@H](C)[C@H]2OC(=O)/C(OC)=C/C(C)=C/[C@@H](C)[C@@H](O)[C@@H](CC)[C@@H](O)[C@H](C)C/C(C)=C/C=C/[C@@H]2OC)C[C@H](OC2CC(O)C(O)C(C)O2)[C@@H]1C (some centres not stated)	active
Cc1c(C)n(-c2ccccc2)c2nc(S(C)(=O)=O)nc(S(C)(=O)=O)c12	inactive
Cc1cc(C)c(S(=O)(=O)N(CCCCCCN)OCCCON(CCCCCCN)S(=O)(=O)c2c(C)cc(C)cc2C)c(C)c1	inactive
CC1=NN=C(N)N/C1=C/C(Sc1ccc(Cl)cc1)c1cccs1 (configuration not stated)	inactive
COc1cccc(CC(=O)N2CCN(CCCc3ccccc3)CC2)c1	inactive
CC(=O)c1sc2c(c1OC(=O)c1ccc(Cl)cc1)c(=O)n(-c1ccccc1)c(=S)n2-c1ccccc1	inactive
CCc1nnc(-c2nsc3ccccc23)s1	inactive
COc1ccc(C2OC(c3ccncc3)=NN2C)cc1F (configuration not stated)	inactive
CC(C)[C@H](COC(C)(C)C)/N=C/N1CSc2ccccc21	inactive
O=[N+]([O-])c1c2nc3n(c2cc2c1nc1n2CCC1)CCC3	inactive
CC12CP(=O)(c3ccccc3)CC1C2(Cl)Cl (configuration not stated)	inactive
O=C1NC2OC(C(O)CO)C(O)C2O1 (configuration not stated)	inactive
CCOC(=O)C1(C#N)C(c2ccccc2)CC(O)(c2ccc([N+](=O)[O-])cc2)C(C(=O)c2ccc([N+](=O)[O-])cc2)C1c1ccccc1 (configuration not stated)	inactive
Nc1ncnc2c1ncn2C1OC(CO)=CC1O (configuration not stated)	inactive
